- Method: Plasma pharmacokinetics after single dose (C1D1), LC-MS/MS
- Format: in vivo, human
- Condition Details: human, plasma, oral, 4.5 mg, cohort Schedule A, 4.5 mg, n = 10, read-out: Tmax, median
Property Measured: Tmax (h)
Numbers only, in h.

Could you tell me which Tmax is on file for Cc1nnn(C)c1-c1cnc2c3ccc(C(C)(C)O)cc3n([C@H](c3ccccc3)C3CCOCC3)c2c1 ?
2.04

###

- Method: Plasma pharmacokinetics after multiple doses (cycle 2, steady state), LC-MS/MS
- Format: in vivo, human
- Condition Details: human, plasma, oral, 4.5 mg, multiple dose, steady state; Schedule C (7 days on, 14 days off), 4.5 mg, n = 7; read-out: AUC(0–24), GM (%CV)
Property Measured: AUC(0-t) (ng·h/mL)
One number for each entry, in ng·h/mL.

Could you tell me which AUC(0-t) is on file for Cc1nnn(C)c1-c1cnc2c3ccc(C(C)(C)O)cc3n([C@H](c3ccccc3)C3CCOCC3)c2c1 ?
11300

###

- Method: Plasma pharmacokinetics after multiple doses (cycle 2, steady state), LC-MS/MS
- Type: in vivo, human
- Condition Details: human, plasma, oral, multiple doses, Schedule A; read-out: AUC(0–24), range
Property Measured: AUC(0-t)

Could you tell me which AUC(0-t) is on file for Cc1nnn(C)c1-c1cnc2c3ccc(C(C)(C)O)cc3n([C@H](c3ccccc3)C3CCOCC3)c2c1 [BMS-986158] ?
2720 to 14600 ng·h/mL

###

- Method: Plasma pharmacokinetics after multiple doses (cycle 2, steady state), LC-MS/MS
- Type: in vivo, human
- Condition Details: human, plasma, oral, multiple dose, Schedule A; read-out: Mean effective T1/2, range
Property Measured: half-life

Could you tell me which half-life is on file for Cc1nnn(C)c1-c1cnc2c3ccc(C(C)(C)O)cc3n([C@H](c3ccccc3)C3CCOCC3)c2c1 ?
25.7 to 36 h

###

- Method: Plasma pharmacokinetics after single dose (C1D1), LC-MS/MS
- Format: in vivo, human
- Condition Details: human, plasma, oral, 3 mg, cohort Schedule C, 3.0 mg, n = 11, read-out: AUC(0–24), GM (%CV)
- Procedure: At C1D1 in every dosing schedule cohort, a single dose was administered followed by 168 h (i.e., 7 days) of intensive PK sampling. Following cycle 1, the multiple-dose treatment schedules (described above) began in cycle 2. […] PK assessments were evaluated for BMS-986158 and its metabolite using plasma samples at regular intervals. Both the parent and metabolite samples were simultaneously analyzed using a validated liquid chromatography and tandem mass spectrometry assay. […]
Property Measured: AUC(0-t) (ng·h/mL)
One number for each entry, in ng·h/mL.

Could you tell me which AUC(0-t) is on file for Cc1nnn(C)c1-c1cnc2c3ccc(C(C)(C)O)cc3n([C@H](c3ccccc3)C3CCOCC3)c2c1 [BMS-986158] ?
4470

###

- Method: Plasma pharmacokinetics after single dose (C1D1), LC-MS/MS
- Type: in vivo, human
- Condition Details: human, plasma, oral, 2 mg, cohort Schedule A, 2.0 mg, n = 9, read-out: AUC(0–24), GM (%CV)
Property Measured: AUC(0-t) (ng·h/mL)
Numbers only, in ng·h/mL.

Could you tell me which AUC(0-t) is on file for Cc1nnn(C)c1-c1cnc2c3ccc(C(C)(C)O)cc3n([C@H](c3ccccc3)C3CCOCC3)c2c1 [BMS-986158] ?
3610
